assayed-target: T1, Human ALPP (leucine zipper) (human)
T1 construct: Whole entry: ALPP fused with a cysteine stabilised leucine zipper and His tag; also called hALPP
T1 chain: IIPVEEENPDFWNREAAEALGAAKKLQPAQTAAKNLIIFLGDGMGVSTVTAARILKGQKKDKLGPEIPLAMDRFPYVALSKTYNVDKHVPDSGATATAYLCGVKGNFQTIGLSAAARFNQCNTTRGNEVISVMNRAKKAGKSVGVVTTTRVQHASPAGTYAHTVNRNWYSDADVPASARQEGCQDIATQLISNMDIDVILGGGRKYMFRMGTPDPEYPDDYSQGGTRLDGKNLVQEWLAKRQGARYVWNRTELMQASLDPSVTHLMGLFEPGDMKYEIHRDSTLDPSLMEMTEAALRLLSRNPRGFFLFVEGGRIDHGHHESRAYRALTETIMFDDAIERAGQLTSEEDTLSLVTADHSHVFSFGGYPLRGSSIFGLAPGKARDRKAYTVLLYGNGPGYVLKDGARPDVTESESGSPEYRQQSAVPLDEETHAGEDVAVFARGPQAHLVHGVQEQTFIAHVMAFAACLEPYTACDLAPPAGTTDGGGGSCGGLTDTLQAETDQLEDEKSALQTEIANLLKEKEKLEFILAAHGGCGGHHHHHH
procedure-details: BLI, antigen immobilised
Protocol: Binding kinetics were determined using the Biolayer Interferometry (BLI) Octet K2 system (Sartorius). […] All assays were conducted in PBS with a plate temperature of 25° C. Ka (M⁻¹s⁻¹), Kd (s⁻¹) and KD (nM) values were determined using Octet Data Analysis High Throughput software (ForteBio) for Biolayer Interferometry.
parameter-measured: koff

• B09 (VHH, not shown: small tags and cut ends) VHH: QVQLVESGGGSVQAGGSLRLSCAASGPSLSHYAMGWFRQAPGKEREFVAGISWGGGRTSYTDSVKGRFTISRDNAKNTVYLQMNNLKPEDTGVYYCAGRYGRGRNVEYEYDYWGQGTQVTVSS = < 1e-07 s⁻¹

Input line: Could you tell me which koff is on file for A08 (VHH, not shown: small tags and cut ends) VHH: QVQLVESGGGLVQAGESLRLACAASGTIFSGNAVGWYRQAPEKQREWVSSITDYGDTDYAEAVKGRFTISRDNAKNTVYLQMNSLKPEDTAVYYCYVYQRGESEEYWGQGTKVTVSS ?
Output line: 1.2e-05 s⁻¹

Input line: Now this one: C07 His (VHH, not shown: small tags and cut ends, also called #258) VHH: QVQLVESGGGLVQAGESLRLACAASGTIFSGNAVGWYRQAPEKQREWVSSITDYGDTDYAEAVKGRFTISRDNAKNTVYLQMNSLKPEDTAVYYCYVYQRGESEEYWGQGTQVTVSS
Output line: 2.8e-05 s⁻¹

Input line: Now this one: F12 (VHH, not shown: small tags and cut ends) VHH: QVQLVESGGGLVEAGGSLRLSCAVSGSALSDYNIGWFRQAPGKEREFVARKTWDGSSTKYDDSVKGRFTVSIDNAKNTAYLQMNSLKTEDTAVYYCAAGRYSRVRGWEYDYWGQRTQVTVSS
Output line: < 1e-07 s⁻¹

Input line: Now this one: H09 (VHH, not shown: small tags and cut ends) VHH: QVQLVESGGGSVQTGGSLRLSCAASGPSLSNYAMGWFRQAPGKEREFVAGISWGGGRTNYLDSVKGRFTISRDNAKNTMYLQMNSLKPEDTAVYYCAGRYGRGRDVEYEYDYWGQGTQVTVSS
Output line: < 1e-07 s⁻¹
